Values compiled from the Immune Epitope Database (IEDB).

Entries and their pKd
tgt: HLA-A*33:01
testProtocol: IEDB peptide-MHC binding, purified MHC/competitive/radioactivity; filed as Kd, often an IC50 or EC50 that approximates it; bounds were set here for any values at or beyond the usual limits of such assays
runParameters: source organism: Dengue virus 1 Brazil/97-11/1997
# pKd: negative log10 of molar concentration; output just the value

>>> measvalue("MFEATARGAR")
7.65

Next, consider the following sequence.
Looking up EVTNPAVLR , I found its pKd recorded as 7.04

* * *

tgt: HLA-B*45:01
testProtocol: IEDB peptide-MHC binding, purified MHC/competitive/radioactivity; filed as Kd, often an IC50 or EC50 that approximates it; bounds were set here for any values at or beyond the usual limits of such assays
runParameters: source organism: Mammarenavirus juninense
recordedMetric: Kd

GET /value?item= MDYLILKNL &field=Kd returns ≥ 33.2 µM

* * *

tgt: HLA-A*11:01
testProtocol: IEDB peptide-MHC binding, purified MHC/direct/fluorescence; filed as Kd, often an IC50 or EC50 that approximates it; bounds were set here for any values at or beyond the usual limits of such assays
runParameters: source organism: Yersinia pestis
The following sequences are shown together with reported Kd values.

>>> measvalue("FLPPQIPVI")
"≥ 20 µM"
>>> measvalue("QLKSRAAVL")
"≥ 20 µM"

// next entry
// Kd value for FMSLQSGDV : ≥ 20 µM

* * *

tgt: HLA-A*02:11
testProtocol: IEDB peptide-MHC binding, purified MHC/direct/fluorescence; filed as Kd, often an IC50 or EC50 that approximates it; bounds were set here for any values at or beyond the usual limits of such assays
runParameters: source organism: Francisella tularensis subsp. tularensis FSC033
pKd: −log10 of the molar value.
recordedMetric: pKd

Recorded pKd for YLYPWSLGL on HLA-A*02:11 was ≥ 9.00

* * *

tgt: HLA-A*69:01
testProtocol: IEDB peptide-MHC binding, purified MHC/competitive/fluorescence; filed as Kd, often an IC50 or EC50 that approximates it; bounds were set here for any values at or beyond the usual limits of such assays
runParameters: source organism: New York virus
pKd: −log10 of the molar value.
recordedMetric: pKd

pKd reported for this sequence FVKDWMDRI : ≤ 4.70

* * *

tgt: HLA-A*24:02
testProtocol: IEDB peptide-MHC binding, purified MHC/competitive/radioactivity; filed as Kd, often an IC50 or EC50 that approximates it; bounds were set here for any values at or beyond the usual limits of such assays
runParameters: source organism: Variola virus
recordedMetric: Kd

The measured Kd associated with QSDTVFDHY reads ≥ 77.5 µM

* * *

tgt: HLA-B*46:01
testProtocol: IEDB peptide-MHC binding, purified MHC/direct/fluorescence; filed as Kd, often an IC50 or EC50 that approximates it; bounds were set here for any values at or beyond the usual limits of such assays
runParameters: source organism: Salmonella enterica subsp. enterica serovar Typhimurium
recordedMetric: Kd

Notebook: WPVMQWLTA , Kd read as ≥ 20 µM

* * *

tgt: HLA-B*46:01
testProtocol: IEDB peptide-MHC binding, purified MHC/direct/fluorescence; filed as Kd, often an IC50 or EC50 that approximates it; bounds were set here for any values at or beyond the usual limits of such assays
runParameters: source organism: Influenza A virus (A/tiger/Thailand/CU-T6/04(H5N1))
recordedMetric: Kd

# value of Kd, HLA-B*46:01, item TYQWIIRNW = ≥ 20 µM
